Field: self-cleavage. Provide a value for each of the variants that follow.
B1: LINE1-mini (parent)
chain: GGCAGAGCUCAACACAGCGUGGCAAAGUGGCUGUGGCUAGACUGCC

# Variants of: B1
# method-description: self-cleavage, relative activity (ratio to wild type); higher = more cleavage; in vitro, sequencing; the parent is a self-cleaving ribozyme
I'd appreciate a reply containing only the number, no unit.

Prompt line: Need self-cleavage of `GGCAGAGCUCAACUCAGCGUGGCAAAGUGGCUGUGGCUAGACUGCC` , thanks.
Response line: 0.45

Prompt line: Given the entry `GGCAGAGCUCAACACGGAGUGGCAAAGUGGCUGUGGCUAGACUGCC` , report its measured self-cleavage.
Response line: 0.16

Prompt line: Query: self-cleavage; subject: `GGCAGAGCUCAACUCAGCGUGACAAAGUGGCUGUGGCUAGACUGCC`
Response line: 0.35

Prompt line: For the variant `GGCAGAGCUCAACACAUCGUGGAAAAGUGGCUGUGGCUAGACUGCC` , what self-cleavage is on record?
Response line: 0.21

Prompt line: Quick one: self-cleavage of `GGCAUAGCUCAACACACCGUGGCAAAGUGGCUGUGGCUAGACUGCC` ?
Response line: 0.06

Prompt line: Can you look up the measured self-cleavage of `CGCAGAGCUCAACACCGCGUGGCAAAGUGGCUGUGGCUAGACUGCC` for me?
Response line: 0.01

Prompt line: Which self-cleavage is listed for `GGCAGAGCUCAACACCGCGUGGCAAAGAGGCUGUGGCUAGACUGCC` ?
Response line: 0.18

Prompt line: If you can, please state the reported self-cleavage value of `GGCAGAGCUCAACAAAGCGUGGCAAAAUGGCUGUGGCUAGACUGCC` .
Response line: 0.15

Prompt line: Which self-cleavage value belongs to `GGCAGAGCUCAACACAGCGUGGCACAGUGGCUGUGGCUAGAGUGCC` ?
Response line: 0.04

Prompt line: Report self-cleavage for `GGCAGAGCUCAACCCAGCGUGGCAAAAUGGCUGUGGCUAGACUGCC` please.
Response line: 0.09

Prompt line: Recorded self-cleavage of `AGCAGAGCUCAACACAGCGUGGCCAAGUGGCUGUGGCUAGACUGCC` , please.
Response line: 0.56
